# IC50 (µM), Tau40 assay (ThT) annotations
Molecular target: His-Tau40P301L Tau (UniProt P10636-8 1-441)
Sequence (P10636 other isoform, or with tags, fused parts or gaps limits assumed): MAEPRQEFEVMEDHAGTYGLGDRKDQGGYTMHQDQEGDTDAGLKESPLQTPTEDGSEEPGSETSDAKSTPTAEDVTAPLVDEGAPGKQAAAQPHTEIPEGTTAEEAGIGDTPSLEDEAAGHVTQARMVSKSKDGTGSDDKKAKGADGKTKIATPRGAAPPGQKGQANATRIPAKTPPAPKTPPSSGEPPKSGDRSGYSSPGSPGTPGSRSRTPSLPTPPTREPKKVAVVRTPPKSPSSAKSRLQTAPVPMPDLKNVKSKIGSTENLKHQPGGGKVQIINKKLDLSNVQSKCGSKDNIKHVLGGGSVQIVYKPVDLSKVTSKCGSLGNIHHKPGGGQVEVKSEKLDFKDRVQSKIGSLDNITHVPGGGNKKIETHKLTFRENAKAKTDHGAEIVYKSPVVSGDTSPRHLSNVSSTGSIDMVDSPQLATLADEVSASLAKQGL
Assay: cell-based or functional assay
Numbers only; they are read as µM.

Memo: WRLWIHWW , reported IC50 (µM), Tau40 assay (ThT): 2.96

More entries:
// sample FRIRIRF , its IC50 (µM), Tau40 assay (ThT) was 6.01

IC50 (µM), Tau40 assay (ThT) reading for WRITIRW : 1.99

Noted for WRIRIRH : its IC50 (µM), Tau40 assay (ThT) reads 4.44
